pKi values for the compounds below.
System name: NS3 (Hepatitis C virus)
Sequence (A3EZJ3 whole entry): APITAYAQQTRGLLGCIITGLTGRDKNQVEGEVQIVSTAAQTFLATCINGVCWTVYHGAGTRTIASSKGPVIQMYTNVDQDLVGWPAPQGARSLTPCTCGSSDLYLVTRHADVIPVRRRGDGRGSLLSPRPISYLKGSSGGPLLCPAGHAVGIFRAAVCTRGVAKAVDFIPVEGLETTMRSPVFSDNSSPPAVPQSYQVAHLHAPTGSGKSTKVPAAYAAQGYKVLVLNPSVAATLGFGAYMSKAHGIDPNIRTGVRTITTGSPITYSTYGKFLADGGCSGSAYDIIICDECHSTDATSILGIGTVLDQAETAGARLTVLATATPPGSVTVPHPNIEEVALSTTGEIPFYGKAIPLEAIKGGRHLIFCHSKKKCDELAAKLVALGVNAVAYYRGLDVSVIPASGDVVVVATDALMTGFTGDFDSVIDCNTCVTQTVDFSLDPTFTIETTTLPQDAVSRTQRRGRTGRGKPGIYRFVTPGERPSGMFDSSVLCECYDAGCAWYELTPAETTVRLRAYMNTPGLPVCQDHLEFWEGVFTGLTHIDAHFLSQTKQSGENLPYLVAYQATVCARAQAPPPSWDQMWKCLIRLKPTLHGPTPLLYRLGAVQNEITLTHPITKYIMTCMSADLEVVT
Numbered stars: 1 amine (or outer) side, 2 acyl side, 3 side chain; on linkers, the order of the positions; unused ones are H or OH. Square brackets hold non-standard residues; d marks the D form. Peptide text beside a SMILES is read from it. * marks the point of attachment. Pro(4,4-S(CH2)3S) = O=C(O)[C@@H]1CC2(CN1)SCCCS2; Pro(4,4-SCH2CH2S) = O=C(O)[C@@H]1CC2(CN1)SCCS2; Pro(4R-Me) = C[C@H]1CN[C@H](C(=O)O)C1; Isobutyloxycarbonyl = CC(C)COC(=O)*; Hyp = O=C(O)[C@@H]1C[C@@H](O)CN1; X2 = CCCC(N[*:1])C(=O)C(=O)[*:2]; Chg = N[C@H](C(=O)O)C1CCCCC1; Phg = N[C@H](C(=O)O)c1ccccc1; Tle = CC(C)(C)[C@H](N)C(=O)O; tBu = CC(C)(C)*
When answering, recall that pKi equals minus log10 of the concentration in mol/L, and write that number alone.

Solved entries (count: 4):
>>> numeric_result("CCCC(NC(=O)[C@@H]1CC2(CN1C(=O)[C@@H](NC(=O)OCC(C)C)C1CCCCC1)SCCCS2)C(=O)C(=O)NCC(=O)N[C@H](C(=O)N(C)C)c1ccccc1 (stereo not given in full) (Isobutyloxycarbonyl-[Chg][Pro(4,4-S(CH2)3S)][X2]G[Phg]-NMe2)")
7.55
>>> numeric_result("CCCC(NC(=O)[C@@H]1CC2(CCCC2)CN1C(=O)[C@@H](NC(=O)OCC(C)C)C1CCCCC1)C(=O)C(=O)NCC(=O)N[C@H](C(=O)N(C)C)c1ccccc1 (stereo not given in full)")
7.59
>>> numeric_result("CCCC(NC(=O)[C@@H]1C[C@@H](SC(C)(C)C)CN1C(=O)[C@@H](NC(=O)OCC(C)C)C(C)(C)C)C(=O)C(=O)NCC(=O)N[C@H](C(=O)N(C)C)c1ccccc1 (stereo not given in full)")
6.92
>>> numeric_result("CCCC(NC(=O)[C@@H]1CC2(CN1C(=O)[C@@H](NC(=O)OCC(C)C)C1CCCCC1)SCCS2)C(=O)C(=O)NCC(=O)N[C@H](C(=O)N(C)C)c1ccccc1 (stereo not given in full) (Isobutyloxycarbonyl-[Chg][Pro(4,4-SCH2CH2S)][X2]G[Phg]-NMe2)")
7.59

Lab note: CCCC(NC(=O)[C@@H]1C[C@@H](OC(C)(C)C)CN1C(=O)[C@@H](NC(=O)OCC(C)C)C(C)(C)C)C(=O)C(=O)NCC(=O)N[C@H](C(=O)N(C)C)c1ccccc1 (stereo not given in full) (Isobutyloxycarbonyl-[Tle][Hyp](tBu)[X2]G[Phg]-NMe2) gave pKi of 7.72

Lab note: CCCC(NC(=O)[C@@H]1C[C@@H](C)CN1C(=O)[C@@H](NC(=O)OCC(C)C)C(C)(C)C)C(=O)C(=O)NCC(=O)N[C@H](C(=O)N(C)C)c1ccccc1 (stereo partly drawn) (Isobutyloxycarbonyl-[Tle][Pro(4R-Me)][X2]G[Phg]-NMe2) gave pKi of 6.85

====

Assay method text: Half life in monkey at 1 mg/kg, iv
Format: ADME, organism-based, Macaca mulatta
Design: dose 1 mg/kg, route intravenous
Measurement context: rhesus monkey, in vivo
Numbered stars: 1 amine (or outer) side, 2 acyl side, 3 side chain; on linkers, the order of the positions; unused ones are H or OH. Square brackets hold non-standard residues; d marks the D form. Peptide text beside a SMILES is read from it. * marks the point of attachment. Pro(3R,4S-CMe2) = CC1(C)[C@@H]2[C@@H](C(=O)O)NC[C@@H]21; X1 = O=C(C(=O)[*:2])C(CC1CC1)N[*:1]; Phg = N[C@H](C(=O)O)c1ccccc1; Tle = CC(C)(C)[C@H](N)C(=O)O; Boc = CC(C)(C)OC(=O)*
Measurement kind: half-life (h)
I only need the number, in h, no unit after it.

Lab note: CN(C)C(=O)[C@@H](NC(=O)CNC(=O)C(=O)C(CC1CC1)NC(=O)[C@@H]1[C@@H]2[C@H](CN1C(=O)[C@@H](NC(=O)OC(C)(C)C)C(C)(C)C)C2(C)C)c1ccccc1 (stereo partly drawn) (Boc-[Tle][Pro(3R,4S-CMe2)][X1]G[Phg]-NMe2) gave half-life of 5.3
